Tested on: rodent lifetime carcinogenesis bioassay, tumor incidence TD50
PROTOCOL TEXT: carcinogenic potency in animals, long-term in vivo studies, CPDB compilation (AID 1745844)
SETUP CONDITIONS: mouse; strain B6C3F1; females; by gavage; site: any site (literature study); lesion: several types; types named in the paper; dosed 104 weeks; study length 104 weeks
Active and inactive are the calls of the source. How the calls were made is not given here.

>  <MOLECULE SMILES>
C=C(Cl)Cl

>  <TD50>
2.09 mg/kg/day

$$$$
>  <MOLECULE SMILES>
Oc1cccc(O)c1

>  <TD50>
1880 mg/kg/day (inactive)

$$$$
>  <MOLECULE SMILES>
Clc1cc2c(cc1Cl)Oc1cc(Cl)c(Cl)cc1O2

>  <TD50>
0.000494 mg/kg/day

$$$$

* * *

System: rodent lifetime carcinogenesis bioassay, tumor incidence TD50
PROTOCOL TEXT: carcinogenic potency in animals, long-term in vivo studies, CPDB compilation (AID 1745844)
SETUP CONDITIONS: rat; strain Fischer 344; males; by gavage; site: kidney; lesion: tubule adenoma + tubule carcinoma; dosed 104 weeks; study length 104 weeks

>  <MOLECULE SMILES>
O=P(OCCCl)(OCCCl)OCCCl

>  <TD50>
56.4 mg/kg/day

$$$$

* * *

Tested on: rodent lifetime carcinogenesis bioassay, tumor incidence TD50
PROTOCOL TEXT: carcinogenic potency in animals, long-term in vivo studies, CPDB compilation (AID 1745844)
SETUP CONDITIONS: rat; strain Fischer 344; females; in feed; site: liver; lesion: hepatocellular adenoma + hepatocellular carcinoma + neoplastic nodule; dosed 103 weeks; study length 107 weeks
OBSERVED PROPERTY: TD50

>  <MOLECULE SMILES>
Nc1ccccc1

>  <RESULT>
13000 mg/kg/day

$$$$

* * *

System: rodent lifetime carcinogenesis bioassay, tumor incidence TD50
PROTOCOL TEXT: carcinogenic potency in animals, long-term in vivo studies, CPDB compilation (AID 1745844)
SETUP CONDITIONS: mouse; strain B6C3F1; males; in feed; site: any site (literature study); lesion: several types; types named in the paper; dosed 94 weeks; study length 94 weeks
Activity calls are given as the source filed them. The rule behind the calls is not given here.

>  <MOLECULE SMILES>
NC(=S)NNC(N)=S

>  <STUDY SYSTEM>
rodent lifetime carcinogenesis bioassay, tumor incidence TD50

>  <TD50>
20000 mg/kg/day (inactive)

$$$$

* * *

Tested on: rodent lifetime carcinogenesis bioassay, tumor incidence TD50
PROTOCOL TEXT: carcinogenic potency in animals, long-term in vivo studies, CPDB compilation (AID 1745844)
SETUP CONDITIONS: rat; strain Fischer 344; females; in drinking water; site: clitoral gland; lesion: carcinoma + carcinoma, bilateral; dosed 91 weeks; study length 93 weeks
OBSERVED PROPERTY: TD50 (mg/kg/day)

>  <MOLECULE SMILES>
COc1cc(-c2ccc(N)c(OC)c2)ccc1N

>  <OBSERVED PROPERTY>
TD50

>  <NUMERIC RESULT>
2.62

$$$$

* * *

Test system: rodent lifetime carcinogenesis bioassay, tumor incidence TD50
PROTOCOL TEXT: carcinogenic potency in animals, long-term in vivo studies, CPDB compilation (AID 1745844)
SETUP CONDITIONS: hamster; strain Syrian Golden; females; in drinking water; site: liver; lesion: hepatoma; dosed 84 weeks; study length 84 weeks
Calls of active or inactive are those of the source. No rule for the calls is given here.
OBSERVED PROPERTY: TD50

>  <MOLECULE SMILES>
NNCCO

>  <OBSERVED PROPERTY>
TD50

>  <RESULT>
148 mg/kg/day (inactive)

$$$$
